- measuredOn: T1, CARM1 fused to Gal4AD (pGAD10.CARM1) (mouse, UniProt Q4AE70 3-651 (rat entry))
- T1 construct: Yeast two-hybrid prey; also called CARM1-AD hybrid protein; CARM1(3-608)
- T1 sequence: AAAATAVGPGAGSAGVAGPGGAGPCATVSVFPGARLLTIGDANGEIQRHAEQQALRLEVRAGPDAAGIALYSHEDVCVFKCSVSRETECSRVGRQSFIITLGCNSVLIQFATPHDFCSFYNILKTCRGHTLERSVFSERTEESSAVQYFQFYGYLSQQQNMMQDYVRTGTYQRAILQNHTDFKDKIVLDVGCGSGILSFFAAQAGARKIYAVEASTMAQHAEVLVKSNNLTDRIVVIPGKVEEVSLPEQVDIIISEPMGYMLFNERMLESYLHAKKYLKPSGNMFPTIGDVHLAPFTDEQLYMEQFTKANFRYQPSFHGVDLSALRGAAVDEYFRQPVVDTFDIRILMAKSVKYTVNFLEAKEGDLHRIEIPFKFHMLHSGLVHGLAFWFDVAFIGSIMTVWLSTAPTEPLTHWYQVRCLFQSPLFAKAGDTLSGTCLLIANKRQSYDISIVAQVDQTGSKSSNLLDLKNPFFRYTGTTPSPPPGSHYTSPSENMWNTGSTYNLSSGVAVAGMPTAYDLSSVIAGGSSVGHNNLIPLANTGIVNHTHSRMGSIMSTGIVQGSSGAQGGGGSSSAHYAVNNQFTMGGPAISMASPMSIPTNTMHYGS
- protocolSummary: yeast two-hybrid, β-galactosidase activity
- Method: Sub-fragments of the GRIP1 C-terminal domain (GRIP lc), fused with the Gal4 DBD, were tested in the yeast two-hybrid system as described previously (Ding, X. F. et al. (1998) Mol. Endocrinol. 12:302) for binding to CARM1 or to α-actinin, fused to Gal4AD. β-galactosidase (β-gal) activity indicates interaction between the two hybrid proteins.
measurementType: binding result

- Gal4 DBD-GRIP1 fragment 1211-1350 (other, UniProt P04386 1-147, looked up) MKLLSSIEQACDICRLKKLKCSKEKPKCAKCLKNNWECRYSPKTKRSPLTRAHLTEVESRLERLEQLFLLIFPREDLDMILKMDSLQDIKALLTGLFVQDNVNKDAVTDRLASVETDMPLTLRQHRISATSSSEESSNKGQRQLTVSSSVSNVNLTLRPGVPTQAPINAQMLAQRQREILNQHLRQRQMQQQVQQRTLMMRGQGLNVTPSMVAPAGLPAAMSNPRIPQANAQQFPFPPNYGISQQPDPGFTGATTPQSPLMSPRMAHTQSPMMQQSQANPAYQPTSD: binds
- Gal4 DBD-GRIP1 1211-1462 (C-terminal fragment of GRIP1c bisected between 1210 and 1211) (other, UniProt P04386 1-147, looked up, also called the C-terminal fragment) MKLLSSIEQACDICRLKKLKCSKEKPKCAKCLKNNWECRYSPKTKRSPLTRAHLTEVESRLERLEQLFLLIFPREDLDMILKMDSLQDIKALLTGLFVQDNVNKDAVTDRLASVETDMPLTLRQHRISATSSSEESSNKGQRQLTVSSSVSNVNLTLRPGVPTQAPINAQMLAQRQREILNQHLRQRQMQQQVQQRTLMMRGQGLNVTPSMVAPAGLPAAMSNPRIPQANAQQFPFPPNYGISQQPDPGFTGATTPQSPLMSPRMAHTQSPMMQQSQANPAYQPTSDMNGWAQGSMGGNSMFSQQSPPHFGQQANTSMYSNNMNISVSMATNTGGLSSMNQMTGQMSMTSVTSVPTSGLPSMGPEQVNDPALRGGNLFPNQLPGMDMIKQEGDASRKYC: binds
